Listing of entries alongside the reported CDC Maximum lysis (%).
target: human Claudin 18.2 (hCLDN18.2) (human, UniProt P56856-2 1-261); assay: cell-based or functional assay
// units = %; emit number, no label

// below: answered binders
[
  {
    "Binder": "ch-76D11 (antibody, V domains shown, also called chimeric antibody of clone 76D11) VH: QVQLQQSGAELMKPGASVKLSCKASGYTFTGYWIEWIKQRPGHGLEWIGEILPGSGSIKYNEKFKDKATFTADTSSNTAYMQLSSLTTEDSAIYYCARKGLRGNSFDYWGQGTTLTVSS VL: DIVMTQSPSSLTVTAGEKVTMSCKSSQSLLNSGNQKNYLTWYQQKPGQPPKRLIYWASTRESGVPDRFTGSGSGTDFTLTISSVQAEDLAVYYCQNDYYYPFTFGSGTKLEIK",
    "Result number": 95.4
  },
  {
    "Binder": "ch-251H11 (antibody, V domains shown, also called chimeric antibody of clone 251H11) VH: QVQLKQSGAELVRPGASVKLSCKTSGYTFTTFWIHWIKQRSGQGLEWIAKIYPGTGYTYYNEKFKGKATLTADKSSSAAYMQLSSLKSEDSAVYFCAREGYGKGNAVDFWGQGSSVTVSS VL: DIVMTQSPSSLTVTAGEKVTMSCKSSQSLFNSGNQKNYLTWYQQKPGQPPKLLIYWASTRESGVPDRFTGSGSGTDFTLTIDSVQAEDLAVYYCQNDYTYPSTFGGGTNLEIK",
    "Result number": 97.1
  }
]

Next binder, please.
For reference, reported CDC Maximum lysis (%) for ch-37G8 (antibody, V domains shown, also called chimeric antibody of clone 37G8) VH: EVQLQQSGPVLVKPGASVKMSCKASGYTFSDYHMNWVKQSHGKSLEWVGLINPYNGGIRFNQKFKGKATLTVDKSSSTAYMELNSLTSEDSAVYYCATIYYGNSFAYWGQGTLVTVSA VL: DIVMTQSPSSLTVTAGEKVTLTCKSGQSLLNSGNQKNYLTWYQQKPGQPPKLLIYWASTRESGVPDRFTGSGSGTDFTLTISGVQAEDLAVYYCQNDYFYPYTFGGGTKLEIK stands at 92.9
